This collection of values is drawn from patent US5021411A.

Listing: pIC50 of selected compounds
- target: central benzodiazepine receptors (specific benzodiazepine receptors in the cerebral cortex)
- testProtocol: Inhibition of the specific binding of tritiated diazepam at the specific benzodiazepine receptors in the cerebral cortex (affinity to central benzodiazepine receptors)
- testConditions: read-out: Affinity to benzodiazepine receptors IC 50
# log scale: pIC50 equals minus log10 of the concentration in mol/L

Query block: // fetch pIC50 given entry C=CC(C)(O)C#Cc1ncn2c1CN(C)C(=O)c1c(Cl)cccc1-2 (stereo not drawn)
Result block: 8.43

Query block: // fetch pIC50 given entry "C/C(C#Cc1ncn2c1CN(C)C(=O)c1c(Cl)cccc1-2)=C/CO"
Result block: 8.85
